Test: BSK_3C_VCAM1: BioMAP Diversity Plus: 3C Assay for Vascular cell adhesion molecule 1 (VCAM1) Biomarker Activity (AID 2282999)
Settings: BioMAP 3C HUVEC, VCAM1 ELISA, cytokine-stimulated; actives raise or lower the signal
Active and inactive are the calls of the source. Rule for the calls: active = hit-call score of the fitted dose curve at least 0.9, where 1 is the maximum; inactive = score below 0.9.
Classes used: active, inactive

compound=O=S(=O)(O)CCC(F)(F)C(F)(F)C(F)(F)C(F)(F)F class=inactive
compound=CCN(CC)c1ccc2c(c1)Oc1cc(N(CC)CC)ccc1C21OC(=O)c2ccccc21 class=inactive
compound=CO[Si](C)(CCC(F)(F)C(F)(F)C(F)(F)C(F)(F)C(F)(F)C(F)(F)F)OC class=inactive
compound=OCC(F)(F)C(F)(F)C(F)(F)CO class=inactive
compound=Nc1cc([N+](=O)[O-])cc(Cl)c1O class=inactive
compound=OC(O)C(F)(F)C(F)(F)F class=inactive
compound=Cc1cc(O)c(C(C)(C)C)cc1C(C)(C)C class=active
compound=O=C=Nc1cccc2c(N=C=O)cccc12 class=inactive
compound=NC(=O)C(F)(F)C(F)(F)C(F)(F)C(F)(F)C(N)=O class=inactive
compound=C[Si](Cl)(Cl)CCC(F)(F)C(F)(F)C(F)(F)C(F)(F)C(F)(F)C(F)(F)F class=inactive
compound=O=C(Cl)C(F)(F)C(F)(F)C(F)(F)C(F)(F)C(F)(F)C(F)(F)C(F)(F)F class=inactive
compound="COC(F)(C(F)F)C(F)(F)F (stereo not given)" class=inactive
compound=Cc1cc(C)c(O)c(C(C)(C)C)c1 class=active
compound=O=C(Cl)C(F)(F)C(F)(F)C(F)(F)C(F)(F)C(F)(F)C(F)(F)F class=inactive
compound=FC(F)(F)C(F)(F)C(F)(F)C(F)(F)C(F)(F)C(F)(F)C(F)(F)CCI class=inactive
compound=C=C(C)C(=O)OCC(F)(F)C(F)(F)C(F)(F)C(F)F class=inactive
compound=O=C(O)C(F)(F)C(F)(F)C(F)(F)C(=O)O class=inactive
compound="CC(C)CCCC(C)CCO (stereo not given)" class=active
compound=CCN(CC)c1ccc(N=Nc2ccccc2)cc1 class=active
compound=O=C(c1ccccc1)c1ccc(O)cc1O class=inactive
compound=O=C(O)C(F)(F)OC(F)(F)C(F)(F)OC(F)(F)C(F)(F)OC(F)(F)F class=inactive
compound=O=C=NCc1cccc(CN=C=O)c1 class=inactive
compound=C=CC(=O)OCC(F)(F)C(F)(F)C(F)(F)C(F)(F)C(F)(F)C(F)(F)C(F)(F)C(F)F class=inactive
compound=Cc1cnccn1 class=inactive
compound=CC(C)(C)c1cc(CCC(=O)NCCCCCCNC(=O)CCc2cc(C(C)(C)C)c(O)c(C(C)(C)C)c2)cc(C(C)(C)C)c1O class=inactive
compound=CCN(CC)c1ccc(C=O)cc1 class=inactive
compound=O=C1c2c(O)ccc(Nc3ccc(CCO)cc3)c2C(=O)c2c([N+](=O)[O-])ccc(O)c21 class=active
compound=O=C1C=CC(=O)N1c1ccc(Cc2ccc(N3C(=O)C=CC3=O)cc2)cc1 class=active
compound=CN(C(=O)C(F)(F)C(F)(F)C(F)(F)F)[Si](C)(C)C class=inactive
compound=CCOC(=O)CC(=O)C(F)(F)C(F)(F)F class=inactive
compound=O=S(=O)(Cl)C(F)(F)C(F)(F)C(F)(F)C(F)(F)C(F)(F)C(F)(F)C(F)(F)C(F)(F)F class=inactive
compound=FC(F)(F)C(F)(F)C(F)(F)C(F)(F)C(F)(F)C(F)(F)CC[Si](Cl)(Cl)Cl class=inactive
compound=Brc1nc2ccccc2s1 class=inactive
compound=O=C(F)C1(F)C(F)(F)C(F)(F)C(F)(F)C(F)(F)C1(F)F class=inactive
compound=NC(=O)C(F)(F)C(F)(F)C(F)(F)C(F)(F)C(F)(F)C(F)(F)C(F)(F)F class=inactive
compound=OCC(F)(F)C(F)(F)C(F)(F)C(F)(F)C(F)(F)C(F)(F)C(F)(F)C(F)(F)CO class=inactive
compound=NC(=O)C(F)(F)C(F)(F)C(F)(F)F class=inactive
compound=O=C(O)C(F)(F)C(F)(F)C(F)(F)OC(F)(F)F class=inactive
compound="FC(F)(F)C(F)(F)C(F)(F)CC1CO1 (stereo not given)" class=inactive
compound=NC(O)(C(F)(F)F)C(F)(F)F class=inactive
